- tested.system: Dopamine D2 (Rattus norvegicus)
- Construct: dopaminergic receptors was also measured using rat striata
- Sequence (P61169 whole entry): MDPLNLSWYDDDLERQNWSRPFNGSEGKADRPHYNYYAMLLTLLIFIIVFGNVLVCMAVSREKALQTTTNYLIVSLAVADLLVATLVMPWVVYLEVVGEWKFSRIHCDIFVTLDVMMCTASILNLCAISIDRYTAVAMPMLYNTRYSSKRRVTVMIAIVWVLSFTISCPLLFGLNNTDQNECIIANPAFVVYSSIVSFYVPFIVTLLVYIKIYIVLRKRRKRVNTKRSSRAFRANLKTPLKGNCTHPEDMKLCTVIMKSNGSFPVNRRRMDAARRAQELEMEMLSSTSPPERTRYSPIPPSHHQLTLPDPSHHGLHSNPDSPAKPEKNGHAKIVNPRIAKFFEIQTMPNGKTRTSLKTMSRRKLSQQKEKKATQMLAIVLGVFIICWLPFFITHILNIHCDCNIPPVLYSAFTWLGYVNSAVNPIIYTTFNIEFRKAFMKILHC
- procedure.summary: Binding to dopaminergic receptors using rat striata (method of Terai et al.)
Structures can show the parent of a compound that is named as a salt.
Each entry falls into one class according to its Ki; the ranges are 1 = under 300 nM, 2 = from 300 nM up to 800 nM, 3 = 800 nM and over

compound	tested.system	assigned.label
O=S1(=O)c2ccccc2Nc2ccccc2N1CC1CCN(CC(O)c2ccc(F)cc2F)CC1 (racemic) [Example 3, hydrochloride]	Dopamine D2 (Rattus norvegicus)	2
Cc1ccccc1C(O)CN1CCC(CN2c3ccccc3Nc3ccccc3S2(=O)=O)CC1 (racemic) [Example 5, hydrochloride]	Dopamine D2 (Rattus norvegicus)	1
COc1ccc2c(c1)N(CC1CCN(CC(O)c3ccc(F)cc3)CC1)S(=O)(=O)c1ccccc1O2 (racemic) [Example 22, hydrochloride]	Dopamine D2 (Rattus norvegicus)	3
O=C(O)/C=C/C(=O)O.O=S1(=O)c2ccccc2Oc2ccccc2N1CC1CCN(C[C@H](O)C23CC4CC(CC(C4)C2)C3)CC1.O=S1(=O)c2ccccc2Oc2ccccc2N1CC1CCN(C[C@H](O)C23CC4CC(CC(C4)C2)C3)CC1 [Example 10]	Dopamine D2 (Rattus norvegicus)	3
O=S1(=O)c2cc(Cl)ccc2Oc2ccccc2N1CC1CCN(CC(O)c2ccccc2)CC1 (racemic) [Example 15, hydrochloride]	Dopamine D2 (Rattus norvegicus)	1
CN(CCCCN1c2ccccc2Oc2ccc(Cl)cc2S1(=O)=O)CC(O)C12CC3CC(CC(C3)C1)C2 (racemic) [Example 23, hydrochloride]	Dopamine D2 (Rattus norvegicus)	3
O=S1(=O)c2ccccc2Nc2ccc(Cl)cc2N1CC1CCN(CC(O)C23CC4CC(CC(C4)C2)C3)CC1 (racemic) [Example 8, hydrochloride]	Dopamine D2 (Rattus norvegicus)	2
COc1ccc(C(O)CN2CCC(CN3c4ccccc4Oc4ccccc4S3(=O)=O)CC2)cc1 (racemic) [Example 12, hydrochloride]	Dopamine D2 (Rattus norvegicus)	1
CN1c2ccccc2N(CC2CCN(CC(O)c3ccc(F)cc3)CC2)S(=O)(=O)c2ccccc21 (racemic) [Example 7, hydrochloride]	Dopamine D2 (Rattus norvegicus)	2
O=S1(=O)c2ccccc2Oc2ccccc2N1CC1CCN(CC(O)c2ccc(Cl)cc2)CC1 (racemic) [Example 11, hydrochloride]	Dopamine D2 (Rattus norvegicus)	1
